Origin of measurements: patent US20030144346A1

Molecular target: type 1 human 5α-reductase (HRED1) (Homo sapiens, UniProt P18405)
Sequence (P18405 1-259): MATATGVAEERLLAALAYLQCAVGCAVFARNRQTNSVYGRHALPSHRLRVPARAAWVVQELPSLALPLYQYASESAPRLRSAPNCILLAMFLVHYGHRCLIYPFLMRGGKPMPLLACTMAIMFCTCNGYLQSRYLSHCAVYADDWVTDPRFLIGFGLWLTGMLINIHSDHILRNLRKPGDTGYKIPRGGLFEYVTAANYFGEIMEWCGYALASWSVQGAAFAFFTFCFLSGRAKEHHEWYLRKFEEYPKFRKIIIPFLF
Assay: Cell free assay of 5α-reductase, microsomes of rat 1A cells expressing type 1 isoenzyme (HRED1);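 note: microsomes from rat 1A cells expressing human type 1 5α-reductase, conversion of radiolabeled testosterone to dihydrotestosterone quantified by thin layer chromatography with radioanalytic scanning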
Type: biochemical
Set-up: expressed in transfected cells; host or cells: rat 1A cells infected with pMV7 retrovirus; microsomes
Settings: 100 μM; cell free assay; Table 5
assay_endpoint: HRED1 % Inhibition @ 100 μM (%)

1. COc1cc(C(=O)OC2Cc3c(O)cc(O)cc3OC2c2cc(O)c(O)c(O)c2)cc(OC)c1OC (stereo not shown); 94
2. CC(=O)OC1Cc2c(O)cc(O)cc2OC1c1cc(O)c(O)c(O)c1 (stereo not shown); 35
3. O=C(OC1Cc2c(O)cc(O)cc2OC1c1cc(O)c(O)c(O)c1)c1ccc2ccccc2c1 (stereo not shown); 99
4. O=C(OC1Cc2c(O)cc(O)cc2OC1c1cc(O)c(O)c(O)c1)c1ccncc1 (stereo not shown); 52
5. O=C(C=Cc1cc(O)c(O)c(O)c1)OC1Cc2c(O)cc(O)cc2OC1c1cc(O)c(O)c(O)c1 (stereo not shown); 99
6. CCCCCC(=O)OC1Cc2c(O)cc(O)cc2OC1c1cc(O)c(O)c(O)c1 (stereo not shown); 90
7. COc1cc(C(=O)OC2Cc3c(O)cc(O)cc3OC2c2cc(O)c(O)c(O)c2)cc(OC)c1O (stereo not shown); 97
